system: Rattus norvegicus; assay: AUC in Wistar rat at 5 mg/kg, po normalized to 1 mg/kg; type: ADME, organism-based, Plasma; conditions: in vivo
Parameter: AUC. Scope: all listed entries.
Only the number, expressed in µM·h, is required.

[
  {
    "Given smiles": "COc1cc2ncnc(Nc3cccc(Cl)c3F)c2cc1OC1CCN(C)CC1",
    "Test target": "Rattus norvegicus",
    "Property label": "AUC",
    "Assay result": 0.08
  },
  {
    "Given smiles": "COc1cc2ncnc(Nc3cccc(Cl)c3F)c2cc1OC1CCN(S(C)(=O)=O)CC1",
    "Test target": "Rattus norvegicus",
    "Property label": "AUC",
    "Assay result": 1.18
  },
  {
    "Given smiles": "COc1cc2ncnc(Nc3cccc(Cl)c3F)c2cc1OC1CCN(CC(N)=O)CC1",
    "Test target": "Rattus norvegicus",
    "Property label": "AUC",
    "Assay result": 0.59
  }
]

Qu. AUC lookup needed for `COCCN1CCC(Oc2cc3c(Nc4cccc(Cl)c4F)ncnc3cc2OC)CC1` , thanks.
Ans. 0.95
